Experiment: collision cross section of modified peptide (TIMS, N2, iRT-aligned); higher = larger / more extended gas-phase ion
Settings: charge state: 2; modification: Formyl
observation.type: collision cross section (Å²)

[[record]]
sequence = "SLGEPAAGEGSAKR [_SLGEPAAGEGSAK(Formyl)R_]"
observation_type = "collision cross section"
result_number = 375.91

[[record]]
sequence = "TEVLSPNSKVESK [_TEVLSPNSK(Formyl)VESK_]"
observation_type = "collision cross section"
result_number = 404.6

[[record]]
sequence = "GFCFITYTDEEPVKK [_GFCFITYTDEEPVK(Formyl)K_]"
observation_type = "collision cross section"
result_number = 450.51

[[record]]
sequence = "VGTASVLQPVKK [_VGTASVLQPVK(Formyl)K_]"
observation_type = "collision cross section"
result_number = 375.49


====

Listed here are sequences together with their documented collision cross section.
Assay: collision cross section of modified peptide (TIMS, N2, iRT-aligned); higher = larger / more extended gas-phase ion
Details: charge state: 2; modification: Crotonyl
observation.type: collision cross section (Å²)

[[record]]
sequence = "DKALPLEAEVAPVK [_DK(Crotonyl)ALPLEAEVAPVK_]"
observation_type = "collision cross section"
result_number = 411.34

[[record]]
sequence = "TTGFYSGFSEVAEKR [_TTGFYSGFSEVAEK(Crotonyl)R_]"
observation_type = "collision cross section"
result_number = 441.38

[[record]]
sequence = "LQLEIDQKK [_LQLEIDQK(Crotonyl)K_]"
observation_type = "collision cross section"
result_number = 366.56

[[record]]
sequence = "LLIVSTTPYSEKDTK [_LLIVSTTPYSEK(Crotonyl)DTK_]"
observation_type = "collision cross section"
result_number = 458.47

[[record]]
sequence = "GTITVSAQELKDNR [_GTITVSAQELK(Crotonyl)DNR_]"
observation_type = "collision cross section"
result_number = 422.36

[[record]]
sequence = "VNALKNLQVK [_VNALK(Crotonyl)NLQVK_]"
observation_type = "collision cross section"
result_number = 376.57

[[record]]
sequence = "SLGEPAAGEGSAKR [_SLGEPAAGEGSAK(Crotonyl)R_]"
observation_type = "collision cross section"
result_number = 387.18

[[record]]
sequence = "ILDLKTGTVK [_ILDLK(Crotonyl)TGTVK_]"
observation_type = "collision cross section"
result_number = 360.69

[[record]]
sequence = "AAQASDLEKIHLDEK [_AAQASDLEK(Crotonyl)IHLDEK_]"
observation_type = "collision cross section"
result_number = 464.23

[[record]]
sequence = "VTLEVGKVIQQGR [_VTLEVGK(Crotonyl)VIQQGR_]"
observation_type = "collision cross section"
result_number = 412.55

[[record]]
sequence = "SNEEGSEEKGPEVR [_SNEEGSEEK(Crotonyl)GPEVR_]"
observation_type = "collision cross section"
result_number = 406.51

[[record]]
sequence = "ITESVAETAQTIKK [_ITESVAETAQTIK(Crotonyl)K_]"
observation_type = "collision cross section"
result_number = 424.18

[[record]]
sequence = "DESFLGKLGGTLAR [_DESFLGK(Crotonyl)LGGTLAR_]"
observation_type = "collision cross section"
result_number = 415.33

[[record]]
sequence = "LLEQKTQESQK [_LLEQK(Crotonyl)TQESQK_]"
observation_type = "collision cross section"
result_number = 398.38

[[record]]
sequence = "ISSNFSSIIAEKLR [_ISSNFSSIIAEK(Crotonyl)LR_]"
observation_type = "collision cross section"
result_number = 435.72

[[record]]
sequence = "LDEKENLSAK [_LDEK(Crotonyl)ENLSAK_]"
observation_type = "collision cross section"
result_number = 370.68

[[record]]
sequence = "VFSIISSEKELK [_VFSIISSEK(Crotonyl)ELK_]"
observation_type = "collision cross section"
result_number = 412.67

[[record]]
sequence = "ANEKTESSSAQQVAVSR [_ANEK(Crotonyl)TESSSAQQVAVSR_]"
observation_type = "collision cross section"
result_number = 431.52

[[record]]
sequence = "TVSKVDDFLANEAK [_TVSK(Crotonyl)VDDFLANEAK_]"
observation_type = "collision cross section"
result_number = 421.27

[[record]]
sequence = "GEVGAGAGPGAQAGPSAKR [_GEVGAGAGPGAQAGPSAK(Crotonyl)R_]"
observation_type = "collision cross section"
result_number = 426.44

[[record]]
sequence = "SEASSEFAKK [_SEASSEFAK(Crotonyl)K_]"
observation_type = "collision cross section"
result_number = 355.23

[[record]]
sequence = "ASDTSSETVFGKR [_ASDTSSETVFGK(Crotonyl)R_]"
observation_type = "collision cross section"
result_number = 402.93

[[record]]
sequence = "GEVQVSDKER [_GEVQVSDK(Crotonyl)ER_]"
observation_type = "collision cross section"
result_number = 363.4

[[record]]
sequence = "SSFAYKDQNENR [_SSFAYK(Crotonyl)DQNENR_]"
observation_type = "collision cross section"
result_number = 403.46

[[record]]
sequence = "ATVASSTQKFQDLGVK [_ATVASSTQK(Crotonyl)FQDLGVK_]"
observation_type = "collision cross section"
result_number = 452.45

[[record]]
sequence = "SDSGKPYYYNSQTK [_SDSGK(Crotonyl)PYYYNSQTK_]"
observation_type = "collision cross section"
result_number = 425.72

[[record]]
sequence = "FSAYIKNSNPALNDNLEK [_FSAYIK(Crotonyl)NSNPALNDNLEK_]"
observation_type = "collision cross section"
result_number = 486.61

[[record]]
sequence = "SLFFGGKGAPLQR [_SLFFGGK(Crotonyl)GAPLQR_]"
observation_type = "collision cross section"
result_number = 404.03

[[record]]
sequence = "IHVQSSSDSSDEPAEKR [_IHVQSSSDSSDEPAEK(Crotonyl)R_]"
observation_type = "collision cross section"
result_number = 451.2

[[record]]
sequence = "AAINQKLIETGER [_AAINQK(Crotonyl)LIETGER_]"
observation_type = "collision cross section"
result_number = 409.27

[[record]]
sequence = "TPNLYIYSKK [_TPNLYIYSK(Crotonyl)K_]"
observation_type = "collision cross section"
result_number = 385.36

[[record]]
sequence = "VNIGQGSHPQKVK [_VNIGQGSHPQK(Crotonyl)VK_]"
observation_type = "collision cross section"
result_number = 430.6

[[record]]
sequence = "SGKFTQQDIDEAK [_SGK(Crotonyl)FTQQDIDEAK_]"
observation_type = "collision cross section"
result_number = 419.28

[[record]]
sequence = "KYEEIDNAPEER [_K(Crotonyl)YEEIDNAPEER_]"
observation_type = "collision cross section"
result_number = 413.83

[[record]]
sequence = "VDVEVPDVSLEGPEGKLK [_VDVEVPDVSLEGPEGK(Crotonyl)LK_]"
observation_type = "collision cross section"
result_number = 469.01


Data credit: the supplement of paper PMC10598134
